measurementTarget: 5-hydroxytryptamine receptor 1A (Homo sapiens, UniProt P08908)
Sequence (P08908 whole entry): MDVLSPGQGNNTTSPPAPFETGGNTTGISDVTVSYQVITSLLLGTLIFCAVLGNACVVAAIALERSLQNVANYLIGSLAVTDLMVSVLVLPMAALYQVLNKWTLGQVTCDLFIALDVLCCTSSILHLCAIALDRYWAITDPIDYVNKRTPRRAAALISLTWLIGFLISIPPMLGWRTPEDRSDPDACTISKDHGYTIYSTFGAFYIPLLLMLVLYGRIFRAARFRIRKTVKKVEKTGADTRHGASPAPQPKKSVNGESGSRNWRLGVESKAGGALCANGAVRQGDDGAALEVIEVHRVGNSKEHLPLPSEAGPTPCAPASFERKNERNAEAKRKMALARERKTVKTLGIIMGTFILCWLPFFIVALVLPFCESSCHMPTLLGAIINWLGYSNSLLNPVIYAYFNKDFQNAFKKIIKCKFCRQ
reportedProperty: IC50

Query :: Quick one: IC50 for N=c1c(C(N)=O)cc(Cl)cn1Cc1ccccc1 ?
Result :: > 1000 nM

---

# reported bioavailability; entries follow
procedureDetails: Oral bioavailability in rat at 1 mg/kg administered via cassette dosing by LC/MS/MS analysis
Assay type: ADME, organism-based
experimentalSetup: in vivo

// known answers, use as guide
N=c1c(C(N)=O)cc(Cl)cn1Cc1cc(Cl)cc(C(N)=O)c1    3%
CS(=O)(=O)c1ccc(Cl)cc1Cn1cc(Cl)cc(C(N)=O)c1=N    84.5%

Please look at the following compound next.
Query :: Quick one: bioavailability for C[C@H](c1cccc(C#N)c1)n1cc(Cl)cc(C(N)=O)c1=N [(R)-9s] ?
Result :: 86%
